assayedSystem: human IDO1 (Homo sapiens)
Sequence (P14902 whole entry): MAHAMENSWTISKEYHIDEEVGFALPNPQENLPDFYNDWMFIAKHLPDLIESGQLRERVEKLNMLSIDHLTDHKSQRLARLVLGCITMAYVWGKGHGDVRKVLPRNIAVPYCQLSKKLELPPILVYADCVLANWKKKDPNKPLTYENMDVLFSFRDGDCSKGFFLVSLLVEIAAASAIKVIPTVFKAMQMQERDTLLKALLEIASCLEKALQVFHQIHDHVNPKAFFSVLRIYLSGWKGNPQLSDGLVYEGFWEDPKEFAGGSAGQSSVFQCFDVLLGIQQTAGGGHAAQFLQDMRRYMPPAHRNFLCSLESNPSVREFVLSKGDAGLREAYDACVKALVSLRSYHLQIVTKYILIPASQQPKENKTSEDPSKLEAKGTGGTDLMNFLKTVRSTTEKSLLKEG
methodNotes: Assessment of human IDO-1 inhibitory activity in HEK cells (human IDO1/HEK293 cells, Ehrlich reagent, absorbance at 490 nm)
Format: cell-based
Parameters: expressed in transfected cells
measurementParameters: In Vitro Potency in the HEK Human IDO-1 Cellular Assay
pIC50: −log10 of the molar value.
# Lookup of reported pIC50 keyed by entry

Answered cases to consult:
>  <compound>
CCOc1ccc(NC(=O)Nc2cc(C(COC)CC(=O)O)cc(F)c2N(CC(C)C)C2CCCCC2)c(F)c1 (single isomer, unassigned)

>  <recordedMeasurement>
> 8.30

$$$$
>  <compound>
CCC(CC(=O)O)c1cc(F)c(N(CC(C)C)CC(C)C)c(Nc2ccc3c(c2)OC(F)(F)O3)c1 (single isomer, unassigned)

>  <recordedMeasurement>
> 8.30

$$$$
>  <compound>
COCC(CC(=O)O)c1ccc(N(CC(C)C)C2CCCCC2)c(NC(=O)Nc2cc(C)on2)c1 (single isomer, unassigned)

>  <recordedMeasurement>
> 7.30

$$$$
>  <compound>
CCC(CC(=O)O)c1ccc(N2CCC[C@H]2C(C)(C)O)c(Nc2ccc(OCC3CC3)cc2)c1 (single isomer, unassigned)

>  <recordedMeasurement>
< 7.30

$$$$
>  <compound>
CCC(CC(=O)O)c1ccc(N(CC2CC2)C2CCOCC2)c(Nc2ccc3nc(C)sc3c2)c1 (single isomer, unassigned)

>  <recordedMeasurement>
> 7.30

$$$$

May I ask what pIC50 has been recorded for CCOc1cc(Nc2cc(C(CC)CC(=O)O)ccc2N(CC(C)C)C2CCCCC2)ccc1Cl (single isomer, unassigned) [Example 653] ? > 7.30
